The measurements presented in this section are drawn from the NIST ThermoML archive (doi:10.1016/j.jct.2017.08.004).

- ASSAY PROCEDURE: molar heat capacity at constant pressure
- COND: 345.15 K; 101.33 kPa; Crystal; Small sample (50 mg) DSC
READOUT LABEL: molar heat capacity at constant pressure (J/K/mol)

> print(dat)
                                   molecule  unit.string  result.number
1                    OC[C@@H](O)[C@@H](O)CO      J/K/mol         192.67
2    OC[C@@H](O)[C@@H](O)[C@H](O)[C@H](O)CO      J/K/mol         272.18
3                 OC[C@@H](O)C(O)[C@H](O)CO      J/K/mol         247.41
4  O[C@H]1[C@H](O)[C@@H](O)[C@H](O)[C@@H](O)[C@H]1O [cis-1,2,3,5-trans-4,6-cyclohexanehexol]      J/K/mol         258.77
